ASSAYED SYSTEM: 5‐HT1A receptor (Rattus norvegicus, UniProt P19327)
Construct: 80 μg of hippocampal membrane suspension (the 5‐HT1A assay); from tissue; host or cells: rat (Sprague-Dawley) hippocampus membranes
Sequence (P19327 whole entry): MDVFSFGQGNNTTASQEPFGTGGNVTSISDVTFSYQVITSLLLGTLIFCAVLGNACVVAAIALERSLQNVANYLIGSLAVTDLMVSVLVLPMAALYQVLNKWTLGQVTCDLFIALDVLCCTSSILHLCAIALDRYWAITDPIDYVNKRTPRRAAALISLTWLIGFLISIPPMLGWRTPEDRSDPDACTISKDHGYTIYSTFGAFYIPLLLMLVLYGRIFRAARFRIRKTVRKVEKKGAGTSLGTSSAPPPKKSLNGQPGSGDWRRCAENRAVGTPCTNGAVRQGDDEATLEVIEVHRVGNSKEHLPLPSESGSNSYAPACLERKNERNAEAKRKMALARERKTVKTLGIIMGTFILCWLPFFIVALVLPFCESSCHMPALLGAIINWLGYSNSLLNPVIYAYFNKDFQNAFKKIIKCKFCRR
EXPERIMENT NOTES: 5‐HT1A receptor activation in the [35S]GTP‐γ‐S assay (hippocampal membranes)
Assay type: biochemical
CONDITION CONTEXT: [35S]GTPγS, rat hippocampal membranes; 95% CI in brackets; read-out: EC50 (95% CI, μM), 5‐HT1A receptor G‐protein stimulation
READOUT: EC50 (µM)
Give just the number in µM; leave the unit off.

Past entries and their recorded results:
# COMPOUND, EC50 / µM
rows = [
    ("O=C(NCCCN1CCN(c2ccccc2C2=NCCS2)CC1)c1ccccn1 [FG‐1]", 16.5),
    ("O=C(NCCCN1CCN(c2cccc(C3=NCCS3)c2)CC1)c1ccncc1 [FG‐5]", 18.2),
    ("O=C1C2C3C=CC(C3)C2C(=O)N1OCCCN1CCN(c2ccccc2C2=NCCS2)CC1 (stereo not drawn) [FG‐7]", 3.01),
    ("O=C1C2C3C=CC(O3)C2C(=O)N1OCCCN1CCN(c2ccccc2C2=NCCS2)CC1 (stereo not drawn) [FG‐10]", 52),
    ("O=C(NCCCN1CCN(c2ccccc2C2=NCCS2)CC1)C1CC2C=CC1C2 (stereo not drawn) [FG‐16]", 41),
]

The reported value for O=C(NCCCN1CCN(c2ccc(C3=NCCS3)cc2)CC1)C1CC2C=CC1C2 (stereo not drawn) [FG‐15] in terms of EC50 is 88.1

The reported value for O=C(NCCCN1CCN(c2cccc(C3=NCCS3)c2)CC1)c1ccccn1 [FG‐2] in terms of EC50 is 125

The reported value for O=C(NCCCN1CCN(c2cccc(C3=NCCS3)c2)CC1)C1CC2C=CC1C2 (stereo not drawn) [FG‐14] in terms of EC50 is 23.3

The reported value for O=C(NCCCN1CCN(c2ccc(C3=NCCS3)cc2)CC1)C1CC2C=CC1C2 (stereo not drawn) [FG‐18] in terms of EC50 is 8.8

----------
ASSAYED SYSTEM: 5‐HT1A receptor (Rattus norvegicus)
Construct: 80 μg of hippocampal membrane suspension (the 5‐HT1A assay); from tissue; host or cells: rat (Sprague-Dawley) hippocampus membranes
EXPERIMENT NOTES: 5‐HT1A receptor activation in the [35S]GTP‐γ‐S assay (hippocampal membranes)
Assay type: biochemical
CONDITION CONTEXT: [35S]GTPγS; efficacy compared with 8‐OH‐DPAT
READOUT: agonist activity for the 5‐HT1A receptor (classification in words)

# COMPOUND, ASSAYED SYSTEM, READING
measured = [
    ("O=C1C2C3C=CC(C3)C2C(=O)N1OCCCN1CCN(c2cccc(C3=NCCS3)c2)CC1 (stereo not drawn)", "5‐HT1A receptor (Rattus norvegicus)", "full agonists"),
    ("O=C(NCCCN1CCN(c2ccc(C3=NCCS3)cc2)CC1)c1ccncc1", "5‐HT1A receptor (Rattus norvegicus)", "full agonists"),
    ("O=C1C2C3C=CC(C3)C2C(=O)N1OCCCN1CCN(c2ccccc2C2=NCCS2)CC1 (stereo not drawn)", "5‐HT1A receptor (Rattus norvegicus)", "full agonists"),
]

----------
ASSAYED SYSTEM: 5‐HT2C receptor (Rattus norvegicus)
Construct: 10 μM pargyline and 160μg of the frontal cortex membrane suspension; from tissue; host or cells: rat (Sprague-Dawley) frontal cortex membranes
Sequence (P08909 33-460): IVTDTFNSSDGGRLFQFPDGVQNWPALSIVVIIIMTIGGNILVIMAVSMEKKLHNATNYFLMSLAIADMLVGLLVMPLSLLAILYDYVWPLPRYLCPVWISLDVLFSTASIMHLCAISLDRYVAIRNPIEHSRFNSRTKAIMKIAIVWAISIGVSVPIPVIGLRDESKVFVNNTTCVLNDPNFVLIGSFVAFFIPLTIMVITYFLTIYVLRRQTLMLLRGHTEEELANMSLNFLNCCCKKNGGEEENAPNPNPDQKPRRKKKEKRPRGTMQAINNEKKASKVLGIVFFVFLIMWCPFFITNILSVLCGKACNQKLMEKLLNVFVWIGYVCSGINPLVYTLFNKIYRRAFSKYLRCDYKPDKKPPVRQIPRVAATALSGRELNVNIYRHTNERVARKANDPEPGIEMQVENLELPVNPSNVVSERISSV
EXPERIMENT NOTES: 5‐HT2C competition binding assay ([3H]mesulergine, frontal cortex membranes)
CONDITION CONTEXT: 5 nM [3H]mesulergine, 95% CI in brackets, read-out: 5‐HT2C Ki (95% CI)
Method: Sprague‐Dawley rats were sacrificed by isoflurane overdose. Brains were rapidly removed and placed on ice. Hippocampi (for the 5‐HT1A assay) and frontal cortices (for the 5‐HT2A and 5‐HT2C assays) were dissected on a Petri dish. […] Non‐specific binding was determined with 10μM serotonin. […] Filter‐bound radioactivity was counted in a MicroBeta2 LumiJet scintillation counter (Revvity, MA, USA). […]
Documented pKi across a set of molecules
Scale: negative log10 of molar concentration, which is what pKi denotes.

# MOLECULE, READOUT, READING
records = [
    ("O=C(NCCCN1CCN(c2ccc(C3=NCCS3)cc2)CC1)c1ccncc1 [FG‐6]", "pKi", 5.66),
]

Tested on 5‐HT2C receptor (Rattus norvegicus): O=C(NCCCN1CCN(c2ccc(C3=NCCS3)cc2)CC1)C1CC2C=CC1C2 (stereo not shown) [FG‐18] . Observed pKi: 7.77

Tested on 5‐HT2C receptor (Rattus norvegicus): O=C(NCCCN1CCN(c2ccccc2C2=NCCS2)CC1)C1CC2C=CC1C2 (stereo not shown) [FG‐16] . Observed pKi: 5.32

Tested on 5‐HT2C receptor (Rattus norvegicus): O=C(NCCCN1CCN(c2ccc(C3=NCCS3)cc2)CC1)C1CC2C=CC1C2 (stereo not shown) [FG‐15] . Observed pKi: 5.63

----------
Tested on: larval zebrafish
EXPERIMENT NOTES: Basic locomotor activity of larval zebrafish
Assay type: in vivo, zebrafish (Danio rerio)
CONDITION CONTEXT: 5 dpf larvae, 20 h incubation at maximum‐tolerated concentration (Figure 12), 30 min tracking
Method: All experiments were conducted on zebrafish (Danio rerio) larvae up to 5 days post fertilization (dpf), therefore, in accordance with current European legislation, ethical permission to conduct assays was not required. […] Before the respective behavioral tests were conducted, larvae at 4 dpf were incubated for 20 h in different arylpiperazine derivatives solutions of maximum‐tolerated concentrations (MCTs), determined during toxicological screening.^[ [30], [32] ^] […]
READOUT: basic locomotor activity (total distance traveled)

# COMPOUND, READING
data = [
    ("O=C(NCCCN1CCN(c2ccccc2C2=NCCS2)CC1)c1ccccn1", "decreased"),
    ("O=C(NCCCN1CCN(c2ccc(C3=NCCS3)cc2)CC1)C1CC2C=CC1C2 (stereo not drawn)", "decreased"),
]

----------
Documented log10(Ki) across a set of molecules
ASSAYED SYSTEM: 5‐HT2C receptor (Rattus norvegicus)
Construct: 10 μM pargyline and 160μg of the frontal cortex membrane suspension; from tissue; host or cells: rat (Sprague-Dawley) frontal cortex membranes
EXPERIMENT NOTES: 5‐HT2C competition binding assay ([3H]mesulergine, frontal cortex membranes)
CONDITION CONTEXT: 5 nM [3H]mesulergine, 95% CI in brackets, read-out: 5‐HT2C Ki (95% CI)
A value of 2 here means Ki of 100 in nM, since values are log10.

Past entries and their recorded results:
# MOLECULE, log10(Ki)
rows = [
    ("O=C(NCCCN1CCN(c2cccc(C3=NCCS3)c2)CC1)c1ccncc1 [FG‐5]", 4.10),
    ("O=C1C2C3C=CC(O3)C2C(=O)N1OCCCN1CCN(c2ccc(C3=NCCS3)cc2)CC1 (centres unmarked) [FG‐12]", 2.46),
    ("O=C(NCCCN1CCN(c2cccc(C3=NCCS3)c2)CC1)c1ccccn1 [FG‐2]", 2.91),
    ("O=C(NCCCN1CCN(c2cccc(C3=NCCS3)c2)CC1)C1CC2C=CC1C2 (centres unmarked) [FG‐14]", 1.86),
    ("O=C1C2C3C=CC(C3)C2C(=O)N1OCCCN1CCN(c2cccc(C3=NCCS3)c2)CC1 (centres unmarked) [FG‐8]", 1.66),
]

The reported value for COc1cc(OC)c(C(=O)CCCCN2CCC3(CC2)NC(=O)NC3=O)cc1NS(=O)(=O)c1ccc(C(F)(F)F)cc1 [RS‐102 221, reference compound] in terms of log10(Ki) is 0.76

The reported value for O=C(NCCCN1CCN(c2ccc(C3=NCCS3)cc2)CC1)c1ccccn1 [FG‐3] in terms of log10(Ki) is 3.16

The reported value for O=C1C2C3C=CC(O3)C2C(=O)N1OCCCN1CCN(c2cccc(C3=NCCS3)c2)CC1 (centres unmarked) [FG‐11] in terms of log10(Ki) is 4.61

----------
Documented Emax across a set of compounds
ASSAYED SYSTEM: 5‐HT1A receptor (Rattus norvegicus, UniProt P19327)
Construct: 80 μg of hippocampal membrane suspension (the 5‐HT1A assay); from tissue; host or cells: rat (Sprague-Dawley) hippocampus membranes
EXPERIMENT NOTES: 5‐HT1A receptor activation in the [35S]GTP‐γ‐S assay (hippocampal membranes)
Assay type: biochemical
CONDITION CONTEXT: [35S]GTPγS, rat hippocampal membranes; read-out: Emax (%) ± SEM, 5‐HT1A receptor G‐protein stimulation
Description: Seven compound concentrations equally spaced on a log scale (10–4 M to 10–10 M) were incubated in duplicate with hippocampal membrane preparations (5μg per well) in assay buffer (50 mM Tris‐HCl, pH = 7.4, 1 mM EGTA, 3 mM MgCl2, 100 mM NaCl, and 30 μM GDP) and 0.08 nM [^35S]GTP‐γ‐S (specific activity: 1250 Ci mmole^−1, Revvity). Nonspecific binding was determined with 10μM of unlabeled GTP‐γ‐S. The final DMSO concentration in the assay was 5%. […]
Give just the number in %; leave the unit off.

Past entries and their recorded results:
# COMPOUND, ASSAYED SYSTEM, READING
data = [
    ("O=C1C2C3C=CC(O3)C2C(=O)N1OCCCN1CCN(c2ccc(C3=NCCS3)cc2)CC1 (stereo not drawn)", "5‐HT1A receptor (Rattus norvegicus, UniProt P19327)", 135),
    ("O=C(NCCCN1CCN(c2ccccc2C2=NCCS2)CC1)c1ccncc1", "5‐HT1A receptor (Rattus norvegicus, UniProt P19327)", 132),
    ("O=C(NCCCN1CCN(c2cccc(C3=NCCS3)c2)CC1)C1CC2C=CC1C2 (stereo not drawn)", "5‐HT1A receptor (Rattus norvegicus, UniProt P19327)", 133),
    ("O=C(NCCCN1CCN(c2ccc(C3=NCCS3)cc2)CC1)c1ccncc1", "5‐HT1A receptor (Rattus norvegicus, UniProt P19327)", 184),
    ("O=C(NCCCN1CCN(c2cccc(C3=NCCS3)c2)CC1)c1ccccn1", "5‐HT1A receptor (Rattus norvegicus, UniProt P19327)", 136),
]

Note: attention shifts to another entry.
Tested on 5‐HT1A receptor (Rattus norvegicus, UniProt P19327): CCCN(CCC)C1CCc2cccc(O)c2C1 (stereo not drawn) [8‐OH‐DPAT, 8‐hydroxy‐dipropylaminotetraline, reference compound] . Observed Emax: 177

The measured values listed here are drawn from paper PMC12321279.
